Experiment: collision cross section of modified peptide (TIMS, N2, iRT-aligned); higher = larger / more extended gas-phase ion
Details: charge state: 2; modification: Phospho (Y)
± gives the standard deviation.
Parameter collision cross section: see the listing below.

| sequence_code | collision cross section |
| --- | --- |
| SVSSSSYR [_SVSSSSY(Phospho (Y))R_] | 317.55 ± 0.69 Å² |
| LAPEYEAAATR [_LAPEY(Phospho (Y))EAAATR_] | 374.2 ± 0.063 Å² |
| YIGTGHADTTK [_Y(Phospho (Y))IGTGHADTTK_] | 372.65 ± 0.75 Å² |

###

Experiment: collision cross section of modified peptide (TIMS, N2, iRT-aligned); higher = larger / more extended gas-phase ion
Details: charge state: 2; modification: Phospho (Y)
readout_label: collision cross section (Å²)

| substance | readout_label | reported_value |
| --- | --- | --- |
| DYGNSPLHR [_DY(Phospho (Y))GNSPLHR_] | collision cross section | 345.01 |
| LNAIYQNNLTK [_LNAIY(Phospho (Y))QNNLTK_] | collision cross section | 390.25 |
| SYVDTGGVSR [_SY(Phospho (Y))VDTGGVSR_] | collision cross section | 347.56 |
| FYTEDSPGLK [_FY(Phospho (Y))TEDSPGLK_] | collision cross section | 366.92 |
| GYGVIFANGNR [_GY(Phospho (Y))GVIFANGNR_] | collision cross section | 364.42 |
| YADLTEDQLPSCESLK [_Y(Phospho (Y))ADLTEDQLPSCESLK_] | collision cross section | 458.87 |
| TEVNSGFFYK [_TEVNSGFFY(Phospho (Y))K_] | collision cross section | 373.38 |
| VYSGHQGR [_VY(Phospho (Y))SGHQGR_] | collision cross section | 330.73 |
| FEGAIYR [_FEGAIY(Phospho (Y))R_] | collision cross section | 333.04 |
| TAIQAAGYPDK [_TAIQAAGY(Phospho (Y))PDK_] | collision cross section | 361.65 |
| HIGFVYHPTK [_HIGFVY(Phospho (Y))HPTK_] | collision cross section | 384.4 |
| DLEEAEEYK [_DLEEAEEY(Phospho (Y))K_] | collision cross section | 369.49 |
| YTAQVDAEEK [_Y(Phospho (Y))TAQVDAEEK_] | collision cross section | 361.18 |
| LYLPVQNK [_LY(Phospho (Y))LPVQNK_] | collision cross section | 343.68 |
| SEGFDTYR [_SEGFDTY(Phospho (Y))R_] | collision cross section | 338.3 |
| YLHDESGLNR [_Y(Phospho (Y))LHDESGLNR_] | collision cross section | 372.11 |
| YSTSGSSGLTTGK [_Y(Phospho (Y))STSGSSGLTTGK_] | collision cross section | 375.26 |
| GVEAVGSYAENQR [_GVEAVGSY(Phospho (Y))AENQR_] | collision cross section | 388.79 |
| GPQNATDSYVHK [_GPQNATDSY(Phospho (Y))VHK_] | collision cross section | 396.29 |
| DYVSQFEGSALGK [_DY(Phospho (Y))VSQFEGSALGK_] | collision cross section | 391.59 |
| TYVQDILR [_TY(Phospho (Y))VQDILR_] | collision cross section | 359.66 |
| GVQYLNEIK [_GVQY(Phospho (Y))LNEIK_] | collision cross section | 357.38 |
| GHYTIGK [_GHY(Phospho (Y))TIGK_] | collision cross section | 330.16 |
| GEYFGEK [_GEY(Phospho (Y))FGEK_] | collision cross section | 321.93 |
| LAEQEAHYAVR [_LAEQEAHY(Phospho (Y))AVR_] | collision cross section | 408.57 |
| SFEDIHQYR [_SFEDIHQY(Phospho (Y))R_] | collision cross section | 367.21 |
| GDYDLNAVR [_GDY(Phospho (Y))DLNAVR_] | collision cross section | 348.87 |
| DYILEGEPGK [_DY(Phospho (Y))ILEGEPGK_] | collision cross section | 357.17 |
| VDATADYICK [_VDATADY(Phospho (Y))ICK_] | collision cross section | 366.93 |
| VVPGYGHAVLR [_VVPGY(Phospho (Y))GHAVLR_] | collision cross section | 386.55 |
| TSAYGPPTR [_TSAY(Phospho (Y))GPPTR_] | collision cross section | 336.75 |
| LDYSDFQIVK [_LDY(Phospho (Y))SDFQIVK_] | collision cross section | 374.72 |
| GYLGPEQLPDCLK [_GY(Phospho (Y))LGPEQLPDCLK_] | collision cross section | 400.34 |
| SPASDTYIVFGEAK [_SPASDTY(Phospho (Y))IVFGEAK_] | collision cross section | 410.05 |
| GPPPSYGGSSR [_GPPPSY(Phospho (Y))GGSSR_] | collision cross section | 343.35 |
| IGAEVYHHLK [_IGAEVY(Phospho (Y))HHLK_] | collision cross section | 385.73 |
| IPPTYQIR [_IPPTY(Phospho (Y))QIR_] | collision cross section | 350.25 |
